B1: RAD51 (parent)
chain: RFLRMLLRLADEFGVAVVITNQVV

- Variants of: B1
- procedure_summary: protein stability index of a GFP-peptide fusion (GPS, HEK-293T) (PSI 1-6); higher = more stable;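 also: lentivirally expressed fusions sorted by FACS into six bins by GFP to DsRed ratio, PSI derived from sequencing read proportions per bin multiplied by bin number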
- recorded_conditions: c terminus: a fixed tail appended
attribute_measured: protein stability index
Just the number.

QUERY: So what does the record say about protein stability index for `F2K` ?
RESULT: 1.39

QUERY: So what does the record say about protein stability index for `L7R` ?
RESULT: 1.49

QUERY: So what does the record say about protein stability index for `V23D` ?
RESULT: 2.64

QUERY: So what does the record say about protein stability index for `M5H` ?
RESULT: 3.79

QUERY: So what does the record say about protein stability index for `L9R` ?
RESULT: 1.7

QUERY: So what does the record say about protein stability index for `E12F` ?
RESULT: 3.25

QUERY: So what does the record say about protein stability index for `F13K` ?
RESULT: 2.2

QUERY: So what does the record say about protein stability index for `Q22Y` ?
RESULT: 2.77

QUERY: So what does the record say about protein stability index for `V17P` ?
RESULT: 1.86
